Tested on: RSK3(Kin.Dom.2-C-terminal)
Construct: gene RPS6KA2
pKd: −log10 of the molar value.
Experimental Endpoint: pKd

### Prompt Field: pKd (RSK3(Kin.Dom.2-C-terminal)). Entry: CS(=O)(=O)c1ccc(-c2c(-c3ncn[nH]3)sc(N3CCOCC3)c2C#N)cc1
### Response < 5.00

###

Parameter pKd: see the listing below.
System: PIK4CB
Construct: gene PI4KB
pKd: −log10 of the molar value.

Compound	Endpoint Result
Cl.NC(=O)c1cccc(Nc2nccc(Nc3ccc(Oc4cccc(Cl)c4)c(Cl)c3)n2)c1 [GW659008]	< 5.00
Cc1cc(N2Cc3ccccc3C2)nc(Nc2ccc(S(=O)(=O)N3CCOCC3)cc2)n1.Cl [GSK1669917]	< 5.00

// next item, pKd requested
### Prompt Param item = CS(=O)(=O)c1ccc(-c2nc3n(c2-c2ccncc2)CCC3)cc1 [SKF-105942] ; retrieve measured pKd.
### Response < 5.00

###

System: ACVR1B
Kd under 0.03 µM gets met, anything at or over 0.03 µM gets not met.

Some solved entries appear below for comparison.
Structure	Assigned Category
Cc1cccc(-c2nc(Nc3ccncc3)c3ccccc3n2)n1	met
Cc1csc(-c2nc(Nc3ccncc3)c3ccccc3n2)n1	not met
Cc1cccc(-c2nc(Nc3cccc(C(N)=O)c3)c3ccccc3n2)n1	not met

### Prompt Consider COc1ccc2nc(-c3cccc(C)n3)nc(Nc3ccncc3)c2c1 . Does its Kd lie strictly below 0.03 µM?
### Response not met

### Prompt Consider Cc1cccc(-c2cc(Nc3ccncc3)c3ccccc3n2)n1 . Does its Kd lie strictly below 0.03 µM?
### Response not met

###

Parameter %Inh: see the listing below.
Tested on: DYRK1A
Experimental Parameters: concentration: 1 μM, replicates: in singlicate; n = 1
Could you give the number and then its unit, please?

Compound	%Inh
COc1cc2ncnc(Nc3ccc4nc(-c5ccccc5)[nH]c4c3)c2cc1OC.Cl	13%
Cc1cc(N2Cc3ccccc3C2)nc(Nc2ccc(S(=O)(=O)N3CCOCC3)cc2)n1.Cl	11%
Cn1ccc2ncnc(Oc3ccc(Nc4nc5ccccc5[nH]4)cc3)c21	0%

// next item, %Inh requested
### Prompt Param item = Cn1ccc2ncnc(Oc3cccc(C(=O)Nc4ccccc4)c3)c21 ; retrieve measured %Inh.
### Response 2%

###

Parameter %Inh: see the listing below.
Test system: DAPK1
Experimental Parameters: concentration: 1 μM, replicates: in singlicate; n = 1
The response must be a number in % with no trailing unit.

Consider the reported %Inh for these compounds:
Compound	Endpoint Result
Cl.c1ccc(-c2n[nH]cc2-c2ccnc(-c3ccc(CN4CCOCC4)cc3)c2)nc1 [GW776245]	13
COc1ccc(CNC(=O)NC2CCN(c3ccnc(Nc4cc(OC)c(OC)c(OC)c4)n3)C2)cc1 (stereo not drawn) [GSK1379748]	0

### Prompt Param item = COc1cccc(NC(=O)NC2CCN(c3ccnc(Nc4ccc(F)cc4)n3)C2)c1 (stereo not drawn) [GSK1379721] ; retrieve measured %Inh.
### Response 10

### Prompt Param item = Nc1nc(-c2nccs2)c(-c2ccnc3ccccc23)s1 [GW693542] ; retrieve measured %Inh.
### Response 0

###

Parameter %Inh: see the listing below.
Tested on: JAK1(JH1domain-catalytic)
Experimental Parameters: concentration: 1 μM, replicates: in singlicate; n = 1
Could you give the number and then its unit, please?

Consider the reported %Inh for these compounds:
Compound	Measurement Target	%Inh
CC(=O)Nc1nc2cnc(Nc3cc(NC(=O)c4cccc(CCC#N)c4)ccc3C)nc2s1	JAK1(JH1domain-catalytic)	3%
Cc1cccc(-c2nc(Nc3ccc4[nH]ncc4c3)c3ccccc3n2)n1 [GW857175]	JAK1(JH1domain-catalytic)	18%
O=C(Nc1n[nH]c2nc(-c3nccs3)c(Br)cc12)C1CC1 [SB-742251]	JAK1(JH1domain-catalytic)	1%

// next item, %Inh requested
### Prompt Param item = CCn1c(-c2cccnc2O)nc2cnccc21 [SB-736715] ; retrieve measured %Inh.
### Response 0%

###

Test system: MAPKAPK2
Experimental Parameters: concentration: 1 μM, replicates: in singlicate; n = 1
%Inh under 10% gets Condition met, anything at or over 10% gets Condition not met.

Some solved entries appear below for comparison.
Molecule	Measurement Target	Assigned Category
Cl.NC(=O)c1cccc(Nc2nccc(Nc3ccc(Oc4cccc(Cl)c4)c(Cl)c3)n2)c1	MAPKAPK2	Condition met
Cn1ccc2ncnc(Oc3cccc(C(=O)Nc4ccccc4)c3)c21	MAPKAPK2	Condition met
C[C@@H]1CCCCN1c1cc(-c2ccc3c(N)n[nH]c3c2)nc(N)n1	MAPKAPK2	Condition met
Cc1cc(NCC(c2ccccc2)c2ccccc2)nc(NCc2ccc(C(F)(F)F)cc2)n1	MAPKAPK2	Condition met

### Prompt Consider O=C(Nc1n[nH]c2cc(-c3cccc(F)c3F)ccc12)C1CC1 . Does its %Inh lie strictly below 10%?
### Response Condition met

### Prompt Consider Cc1ccccc1-n1cnc2c(N)ncnc21 . Does its %Inh lie strictly below 10%?
### Response Condition met

### Prompt Consider Fc1cc(Cl)ccc1Nc1ccnc2cc(I)ccc12 . Does its %Inh lie strictly below 10%?
### Response Condition not met

### Prompt Consider Nc1nc(-c2nccs2)c(-c2ccnc3ccccc23)s1 . Does its %Inh lie strictly below 10%?
### Response Condition not met

### Prompt Consider Cl.c1ccc(-c2n[nH]cc2-c2ccnc(-c3ccc(CN4CCOCC4)cc3)c2)nc1 . Does its %Inh lie strictly below 10%?
### Response Condition not met

### Prompt Consider COc1cc2ncn(-c3cc(OCC4CCCO4)c(C(N)=O)s3)c2cc1OC (centres unmarked) . Does its %Inh lie strictly below 10%?
### Response Condition met

###

Tested on: CAMK1D
Experimental Parameters: concentration: 1 μM, replicates: in singlicate; n = 1
Parameter %Inh: see the listing below.
The response must be a number in % with no trailing unit.

Consider the reported %Inh for these compounds:
Structure	Unit Of Measurement	Endpoint Result
COc1cc2ncnc(Nc3ccc4nc(-c5ccccc5)[nH]c4c3)c2cc1OC.Cl	%	20
Cc1cccc(-c2cc(Nc3ccncc3)c3ccccc3n2)n1	%	26
O=C(Nc1n[nH]c2cc(-c3cccc(F)c3F)ccc12)C1CC1	%	12

### Prompt Param item = CN(C)CCN(C)C(=O)c1cc(-c2ccncc2)c(-c2ccc(Cl)c(O)c2)o1.Cl.Cl ; retrieve measured %Inh.
### Response 13

### Prompt Param item = CC(=O)Nc1nc2cnc(Nc3cc(NC(=O)c4cccc(CCC#N)c4)ccc3C)nc2s1 ; retrieve measured %Inh.
### Response 30

### Prompt Param item = Clc1cc(Cl)cc(Nc2ccnc(Nc3cc(Cl)cc(Cl)c3)n2)c1 ; retrieve measured %Inh.
### Response 10

### Prompt Param item = COc1cccc(-c2cc(-c3c[nH]nc3-c3ccccn3)ccn2)c1 ; retrieve measured %Inh.
### Response 14

### Prompt Param item = COc1ccccc1CNC(=O)c1cc(C(=O)c2ccccc2C)c[nH]1 ; retrieve measured %Inh.
### Response 0

###

Parameter %Inh: see the listing below.
Test system: CLK3
Experimental Parameters: concentration: 1 μM, replicates: in singlicate; n = 1
The response must be a number in % with no trailing unit.

Consider the reported %Inh for these compounds:
Compound	Experimental Endpoint	Unit Of Measurement	Endpoint Result
Cc1cccc(-c2nc(Nc3cccc(C(N)=O)c3)c3ccccc3n2)n1	%Inh	%	14
COc1cc2ncn(-c3cc(OCC4CCCO4)c(C(N)=O)s3)c2cc1OC (centres unmarked)	%Inh	%	10
O=C(Nc1n[nH]c2cc(-c3cccc(F)c3F)ccc12)C1CC1	%Inh	%	0
Cc1ccc(-c2cc(-c3c[nH]nc3-c3ccccn3)ccn2)cc1	%Inh	%	0

// next item, %Inh requested
### Prompt Param item = O=c1cc(N2CCOCC2)nc2n(Cc3cccc(Cl)c3Cl)ccn12 ; retrieve measured %Inh.
### Response 13

###

System: MKNK1
Experimental Parameters: concentration: 1 μM, replicates: in singlicate; n = 1
Parameter %Inh: see the listing below.
The response must be a number in % with no trailing unit.

Compound	Unit Of Measurement	%Inh
COc1cc2ncn(-c3cc(OCC4CCCO4)c(C(N)=O)s3)c2cc1OC (stereo not drawn) [GSK204607]	%	0

### Prompt Field: %Inh (MKNK1). Entry: Cc1cccc(-c2nc(Nc3ccncc3)c3ccccc3n2)n1 [GW855857]
### Response 0

### Prompt Field: %Inh (MKNK1). Entry: CN1C(=O)C(Nc2ccc(Cl)c(C(=O)O)c2)=C(c2ccc(Cl)cc2)C1=O [SB-404290]
### Response 0

###

Tested on: SLK
Experimental Parameters: concentration: 1 μM, replicates: in singlicate; n = 1
%Inh under 9% gets label 1, anything at or over 9% gets label 0.

Some solved entries appear below for comparison.
Compound	Assigned Category
COc1ccc(C2=C(Nc3cccc(C(=O)O)c3)C(=O)NC2=O)cc1 [SB-390765]	label 1
COC(=O)c1c(-c2ccccc2)c2cc(C(=O)O)ccc2c(=O)n1Cc1ccccc1	label 0
Fc1cc(Cl)ccc1Nc1ccnc2cc(-c3ccc(CN4CCCCC4)o3)ccc12 [GW560116]	label 1

Now consider the entry below.
### Prompt Consider CC(C)(C)c1ccc(C(=O)Nc2cn3cc(-c4cccnc4)ccc3n2)cc1 . Does its %Inh lie strictly below 9%?
### Response label 0
